Test system human Gal-1 (hGal-1) (Homo sapiens, UniProt P09382), IC50 listed for each of the molecules.
Give the number; nM is assumed, so skip it.

Q: Give recorded IC50 with human Gal-1 (hGal-1) (Homo sapiens, UniProt P09382) for the following molecule: CO[C@@H]1[C@@H](n2cc(-c3cc(F)c(F)c(F)c3)nn2)[C@@H](O)[C@@H](CO)O[C@H]1S[C@H](C(=O)N1CCC(F)(F)CC1)C1(O)CCC2(CCC2)CC1 [Example 2.69.226S.I.]
Sequence (P09382 whole entry): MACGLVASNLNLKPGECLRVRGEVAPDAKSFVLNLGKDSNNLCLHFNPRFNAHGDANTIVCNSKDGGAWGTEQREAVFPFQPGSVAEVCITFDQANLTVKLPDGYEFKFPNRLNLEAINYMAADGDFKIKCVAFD
Result: 270

Q: Observed IC50 on human Gal-1 (hGal-1) (Homo sapiens, UniProt P09382) for CN(CC1CC1)C(=O)[C@@H](S[C@@H]1O[C@H](CO)[C@H](O)[C@H](n2cc(-c3cc(F)c(F)c(F)c3)nn2)[C@H]1O)C1(O)CCOCC1 [Example 2.41.218S.] , please.
Result: 50

Q: Request body: readout IC50, system human Gal-1 (hGal-1) (Homo sapiens, UniProt P09382), query CCN(C)C(=O)C(S[C@@H]1O[C@H](CO)[C@H](O)[C@H](n2cc(-c3cc(F)c(F)c(F)c3)nn2)[C@H]1O)C1(O)CCOCC1 (stereo partly drawn) . Return the value.
Result: 420

Q: Please tell me: IC50 of CN(C(=O)C(S[C@@H]1O[C@H](CO)[C@H](O)[C@H](n2cc(-c3cc(F)c(F)c(F)c3)nn2)[C@H]1O)C1(O)CCOCC1)C1CCC1 (stereo partly drawn) , system human Gal-1 (hGal-1) (Homo sapiens, UniProt P09382)?
Result: 30

Q: Query the reported IC50 for human Gal-1 (hGal-1) (Homo sapiens, UniProt P09382); item: O=C(C(S[C@@H]1O[C@H](CO)[C@H](O)[C@H](n2cc(-c3cc(F)c(F)c(F)c3)nn2)[C@H]1O)C1(O)CC(F)(F)C1)N1CCC1 (stereo partly drawn)
Result: 1710

Q: Return IC50 measured with human Gal-1 (hGal-1) (Homo sapiens, UniProt P09382) given this molecule: CCN(C)C(=O)[C@H](S[C@@H]1O[C@H](CO)[C@H](O)[C@H](n2cc(-c3cc(F)c(F)c(F)c3)nn2)[C@H]1O)C1(O)CCN(S(=O)(=O)C2CC2)CC1 [Example 2.51.203R.]
Result: 7500

Q: Recall the recorded IC50 for CN(CC(C)(C)F)C(=O)[C@H](S[C@@H]1O[C@H](CO)[C@H](O)[C@H](n2cc(-c3cc(F)c(F)c(F)c3)nn2)[C@H]1O)C1(O)CCC1 [Example 2.34.222R.] with human Gal-1 (hGal-1) (Homo sapiens, UniProt P09382) and state it.
Result: 46000

Q: Request body: readout IC50, system human Gal-1 (hGal-1) (Homo sapiens, UniProt P09382), query CO[C@@H]1[C@@H](n2cc(-c3cc(F)c(F)c(F)c3)nn2)[C@@H](O)[C@@H](CO)O[C@H]1SC(C(=O)N1CCC(F)(F)CC1)C1(O)CCC(C)(C)CC1 (stereo partly drawn) . Return the value.
Result: 190

Q: Give the reported IC50 for CCN(C)C(=O)[C@H](S[C@@H]1O[C@H](CO)[C@H](O)[C@H](n2cc(-c3cc(F)c(F)c(F)c3)nn2)[C@H]1O)C1(O)CCC1 [Example 2.34.203R.] (system: human Gal-1 (hGal-1) (Homo sapiens, UniProt P09382)).
Result: 28300

Q: Please state recorded IC50 (tested on human Gal-1 (hGal-1) (Homo sapiens, UniProt P09382)) of CN(CC1(F)CCCC1)C(=O)C(S[C@@H]1O[C@H](CO)[C@H](O)[C@H](n2cc(-c3cc(F)c(F)c(F)c3)nn2)[C@H]1O)C1(O)CCC(F)(F)CC1 (mixture of isomers) [Example 2.44.223.]
Result: 120

Q: // lookup IC50 | system=human Gal-1 (hGal-1) (Homo sapiens, UniProt P09382) | key= CCN(C)C(=O)C(S[C@@H]1O[C@H](CO)[C@H](O)[C@H](n2cc(-c3cc(F)c(Br)c(F)c3)nn2)[C@H]1O)C1(O)CCOCC1 (stereo partly drawn)
Result: 350

Q: Param readout= IC50; system= human Gal-1 (hGal-1) (Homo sapiens, UniProt P09382); entry= CO[C@@H]1[C@@H](n2cc(-c3cc(F)c(F)c(F)c3)nn2)[C@@H](O)[C@@H](CO)O[C@H]1SC(C(=O)N(C)C1COC1)C1(O)CCC(F)(F)CC1 (stereo partly drawn) ; returns value.
Result: 170

Q: For the record CCN(C)C(=O)[C@H](S[C@@H]1O[C@H](CO)[C@H](O)[C@H](n2cc(-c3cc(F)c(F)c(F)c3)nn2)[C@H]1OC)C1(O)CCN(C(=O)NC2CC2)CC1 [Example 2.49.226R.I.] , what value of IC50 is listed for human Gal-1 (hGal-1) (Homo sapiens, UniProt P09382)?
Result: 80

Q: Entry CCN(C)C(=O)C(S[C@@H]1O[C@H](CO)[C@H](O)[C@H](n2cc(-c3nc(Br)cs3)nn2)[C@H]1O)C1(O)CCOCC1 (stereo partly drawn) , system human Gal-1 (hGal-1) (Homo sapiens, UniProt P09382): what IC50 was measured?
Result: 30

Q: // lookup IC50 | system=human Gal-1 (hGal-1) (Homo sapiens, UniProt P09382) | key= CCN(C)C(=O)C(S[C@@H]1O[C@H](CO)[C@H](O)[C@H](n2cc(-c3cc(F)c(F)c(F)c3)nn2)[C@H]1O)C(O)Cc1ccccc1 (stereo partly drawn)
Result: 1460

Q: Request body: readout IC50, system human Gal-1 (hGal-1) (Homo sapiens, UniProt P09382), query CCN(C)C(=O)[C@@H](S[C@@H]1O[C@H](CO)[C@H](O)[C@H](n2cc(-c3cc(F)c(F)c(F)c3)nn2)[C@H]1OC)C1(O)CCN(C(=O)NC2CC2)CC1 [Example 2.49.226S.I.] . Return the value.
Result: 1700
